target: UniProtKB P34972
assay_name: Induction of human CB2 receptor internalization expressed in HEK293 cells at 10 uM relative to CP55940
Format: cell-based
# thresholds on Activity define classes: bottom (below 60%), middle (60% to below 80%), top (80% or more)

[[record]]
compound_structure_string = "CCCCCn1c2ccccc2c2cc(C(=O)N3CCS(=O)(=O)CC3)ccc21"
classification = "top"

[[record]]
compound_structure_string = "O=C(c1ccc2c(c1)c1ccccc1n2CC1CCOCC1)N1CCCCC1"
classification = "top"

[[record]]
compound_structure_string = "COC(=O)CCCn1c2ccccc2c2cc(C(=O)N3CCCCC3)ccc21"
classification = "bottom"

[[record]]
compound_structure_string = "COCCCn1c2ccccc2c2cc(C(=O)N3CCCCC3)ccc21"
classification = "middle"

[[record]]
compound_structure_string = "CCCCCn1c2ccccc2c2cc(C(=S)N3CCCCC3)ccc21"
classification = "middle"

[[record]]
compound_structure_string = "O=C(c1ccc2c(c1)c1ccccc1n2Cc1ccncc1)N1CCCCC1"
classification = "middle"

[[record]]
compound_structure_string = "CCCCCn1c2ccccc2c2cc(C(=O)NCC(C)(C)C)ncc21"
classification = "bottom"

[[record]]
compound_structure_string = "CCCCn1c2ccccc2c2cc(C(=O)N3CCCCC3)ccc21"
classification = "middle"

[[record]]
compound_structure_string = "O=C(OCCCn1c2ccccc2c2cc(C(=O)N3CCCCC3)ccc21)N1CCS(=O)(=O)CC1"
classification = "bottom"

[[record]]
compound_structure_string = "CCCCCn1c2ccccc2c2cc(C(=O)CN3CCCCC3)ccc21"
classification = "top"


---

target: Cannabinoid receptor 2 (Homo sapiens, UniProt P34972)
Sequence (P34972 whole entry): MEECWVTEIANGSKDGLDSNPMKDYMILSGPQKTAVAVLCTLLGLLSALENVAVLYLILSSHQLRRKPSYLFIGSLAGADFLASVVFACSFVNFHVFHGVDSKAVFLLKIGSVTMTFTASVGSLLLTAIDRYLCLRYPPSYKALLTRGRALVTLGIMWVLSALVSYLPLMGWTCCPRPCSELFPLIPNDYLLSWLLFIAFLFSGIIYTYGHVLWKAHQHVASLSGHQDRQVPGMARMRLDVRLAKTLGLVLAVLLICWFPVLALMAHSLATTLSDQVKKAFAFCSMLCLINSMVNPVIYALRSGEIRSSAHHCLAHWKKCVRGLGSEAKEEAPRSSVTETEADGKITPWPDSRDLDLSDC
assay_name: Displacement of [3H]-CP55940 from human CB2 receptor expressed in HEK293 cells after 1.5 hrs by microbeta liquid scintillation counting analysis
Assay type: cell-based
conditions: read-out: Ki
pKi: −log10 of the molar value.
The reader will find reported pKi values listed item by item below.
measured_attribute: pKi

[[record]]
compound_structure_string = "CCCCCn1c2ccccc2c2cc(C(=O)NN3CCCCC3)ccc21"
target = "Cannabinoid receptor 2 (Homo sapiens, UniProt P34972)"
measured_attribute = "pKi"
meas_value = 5.79

[[record]]
compound_structure_string = "CCCCCn1c2ccccc2c2cc(CN3CCCCC3)ccc21"
target = "Cannabinoid receptor 2 (Homo sapiens, UniProt P34972)"
measured_attribute = "pKi"
meas_value = 6.43

[[record]]
compound_structure_string = "CCCCCn1c2ccccc2c2cc(C(=O)N(CC)CC)ccc21"
target = "Cannabinoid receptor 2 (Homo sapiens, UniProt P34972)"
measured_attribute = "pKi"
meas_value = 7.29

[[record]]
compound_structure_string = "O=C(c1ccc2c(c1)c1ccccc1n2CCCCl)N1CCCCC1"
target = "Cannabinoid receptor 2 (Homo sapiens, UniProt P34972)"
measured_attribute = "pKi"
meas_value = 7.06

[[record]]
compound_structure_string = "CCCCCn1c2ccccc2c2cc(C(=O)CN3CCCCC3)ccc21"
target = "Cannabinoid receptor 2 (Homo sapiens, UniProt P34972)"
measured_attribute = "pKi"
meas_value = 5.96

[[record]]
compound_structure_string = "COCCCn1c2ccccc2c2cc(C(=O)N3CCCCC3)ccc21"
target = "Cannabinoid receptor 2 (Homo sapiens, UniProt P34972)"
measured_attribute = "pKi"
meas_value = 7.08

[[record]]
compound_structure_string = "CCCCCn1c2ccccc2c2cc(C(=O)OCc3ccncc3)ccc21"
target = "Cannabinoid receptor 2 (Homo sapiens, UniProt P34972)"
measured_attribute = "pKi"
meas_value = 5.86

[[record]]
compound_structure_string = "CCCCCn1c2ccccc2c2cc(C(=O)NC34CC5CC(CC(C5)C3)C4)ccc21"
target = "Cannabinoid receptor 2 (Homo sapiens, UniProt P34972)"
measured_attribute = "pKi"
meas_value = 6.54

[[record]]
compound_structure_string = "O=C(c1ccc2c(c1)c1ccccc1n2CCCN1CCCCC1)N1CCCCC1"
target = "Cannabinoid receptor 2 (Homo sapiens, UniProt P34972)"
measured_attribute = "pKi"
meas_value = 5.66

[[record]]
compound_structure_string = "CCCCCn1c2ccccc2c2cc(C(=O)NCC(C)(C)C)ncc21"
target = "Cannabinoid receptor 2 (Homo sapiens, UniProt P34972)"
measured_attribute = "pKi"
meas_value = 7.58

[[record]]
compound_structure_string = "O=C(c1ccc2c(c1)c1ccccc1n2Cc1ccccn1)N1CCCCC1"
target = "Cannabinoid receptor 2 (Homo sapiens, UniProt P34972)"
measured_attribute = "pKi"
meas_value = 6.67

[[record]]
compound_structure_string = "CCCCn1c2ccccc2c2cc(C(=O)N3CCCCC3)ccc21"
target = "Cannabinoid receptor 2 (Homo sapiens, UniProt P34972)"
measured_attribute = "pKi"
meas_value = 6.58

[[record]]
compound_structure_string = "CCCCCn1c2ccccc2c2cc(C(=O)N3CCN(C)CC3)ccc21"
target = "Cannabinoid receptor 2 (Homo sapiens, UniProt P34972)"
measured_attribute = "pKi"
meas_value = 7.45

[[record]]
compound_structure_string = "CCCCCn1c2ccccc2c2cc(C(=O)OCc3ccccn3)ccc21"
target = "Cannabinoid receptor 2 (Homo sapiens, UniProt P34972)"
measured_attribute = "pKi"
meas_value = 5.72

[[record]]
compound_structure_string = "CCCCCn1c2ccccc2c2cc(C(=S)N3CCCCC3)ccc21"
target = "Cannabinoid receptor 2 (Homo sapiens, UniProt P34972)"
measured_attribute = "pKi"
meas_value = 7.30

[[record]]
compound_structure_string = "CCCCCn1c2ccccc2c2cc(C(=O)OCC)ncc21"
target = "Cannabinoid receptor 2 (Homo sapiens, UniProt P34972)"
measured_attribute = "pKi"
meas_value = 5.86

[[record]]
compound_structure_string = "CCCCCn1c2ccccc2c2cc(C(=O)N3CCS(=O)(=O)CC3)ccc21"
target = "Cannabinoid receptor 2 (Homo sapiens, UniProt P34972)"
measured_attribute = "pKi"
meas_value = 6.65

[[record]]
compound_structure_string = "CCOC(=O)CCn1c2ccccc2c2cc(C(=O)N3CCCCC3)ccc21"
target = "Cannabinoid receptor 2 (Homo sapiens, UniProt P34972)"
measured_attribute = "pKi"
meas_value = 5.88

[[record]]
compound_structure_string = "O=C(c1ccc2c(c1)c1ccccc1n2CCCl)N1CCCCC1"
target = "Cannabinoid receptor 2 (Homo sapiens, UniProt P34972)"
measured_attribute = "pKi"
meas_value = 6.28

[[record]]
compound_structure_string = "CS(=O)(=O)NCCCn1c2ccccc2c2cc(C(=O)N3CCCCC3)ccc21"
target = "Cannabinoid receptor 2 (Homo sapiens, UniProt P34972)"
measured_attribute = "pKi"
meas_value = 7.21

[[record]]
compound_structure_string = "CCCCCn1c2ccccc2c2cc(C(=O)c3ccccc3)ccc21"
target = "Cannabinoid receptor 2 (Homo sapiens, UniProt P34972)"
measured_attribute = "pKi"
meas_value = 7.00

[[record]]
compound_structure_string = "O=C(c1ccc2c(c1)c1ccccc1n2CC1CCOCC1)N1CCCCC1"
target = "Cannabinoid receptor 2 (Homo sapiens, UniProt P34972)"
measured_attribute = "pKi"
meas_value = 7.70

[[record]]
compound_structure_string = "O=C(OCCCn1c2ccccc2c2cc(C(=O)N3CCCCC3)ccc21)N1CCS(=O)(=O)CC1"
target = "Cannabinoid receptor 2 (Homo sapiens, UniProt P34972)"
measured_attribute = "pKi"
meas_value = 7.14


---

The reader will find reported Activity values listed item by item below.
target: Cannabinoid receptor 1 (Homo sapiens)
assay_name: Induction of human CB1 receptor internalization expressed in HEK293 cells at 10 uM relative to CP55940
Type: cell-based
measured_attribute: Activity

[[record]]
compound_structure_string = "CCCCCn1c2ccc(C(=O)N3CCCCC3)cc2c2ccc(OC)cc21"
target = "Cannabinoid receptor 1 (Homo sapiens)"
meas_value = "33.4%"

[[record]]
compound_structure_string = "O=C(c1ccc2c(c1)c1ccccc1n2CC1CCOCC1)N1CCCCC1"
target = "Cannabinoid receptor 1 (Homo sapiens)"
meas_value = "142%"

[[record]]
compound_structure_string = "CS(=O)(=O)NCCCn1c2ccccc2c2cc(C(=O)N3CCCCC3)ccc21"
target = "Cannabinoid receptor 1 (Homo sapiens)"
meas_value = "54.1%"

[[record]]
compound_structure_string = "CCCCCn1c2ccccc2c2cc(C(=O)c3ccccc3)ccc21"
target = "Cannabinoid receptor 1 (Homo sapiens)"
meas_value = "77%"

[[record]]
compound_structure_string = "CCCCCn1c2ccccc2c2cc(C(=O)CN3CCCCC3)ccc21"
target = "Cannabinoid receptor 1 (Homo sapiens)"
meas_value = "-20.4%"

[[record]]
compound_structure_string = "CCCCCn1c2ccccc2c2cc(C(=O)N(CC)CC)ccc21"
target = "Cannabinoid receptor 1 (Homo sapiens)"
meas_value = "102%"


---

target: Cannabinoid receptor 2 (Homo sapiens)
assay_name: Displacement of [3H]-CP55940 from human CB2 receptor expressed in HEK293 cells after 1.5 hrs by microbeta liquid scintillation counting analysis
Format: cell-based
conditions: read-out: Ki
measured_attribute: Ki (nM)

[[record]]
compound_structure_string = "CC(C)(C)OC(=O)NCCCn1c2ccccc2c2cc(C(=O)N3CCCCC3)ccc21"
meas_value = 2690

[[record]]
compound_structure_string = "O=C(c1ccc2c(c1)c1ccccc1n2Cc1cccnc1)N1CCCCC1"
meas_value = 600

[[record]]
compound_structure_string = "CN(C)CCCn1c2ccccc2c2cc(C(=O)N3CCCCC3)ccc21"
meas_value = 403

[[record]]
compound_structure_string = "COC(=O)CCCn1c2ccccc2c2cc(C(=O)N3CCCCC3)ccc21"
meas_value = 208

[[record]]
compound_structure_string = "CCCCCCn1c2ccccc2c2cc(C(=O)N3CCCCC3)ccc21"
meas_value = 96

[[record]]
compound_structure_string = "CCCCCn1c2ccccc2c2cc(C(=O)N3CCCCC3)ccc21"
meas_value = 73

[[record]]
compound_structure_string = "CCCCCn1c2ccccc2c2cc(C(=O)NN3CCCCC3)ncc21"
meas_value = 171

[[record]]
compound_structure_string = "CCCCCn1c2ccccc2c2cc(C(=O)N3CCOCC3)ccc21"
meas_value = 84.5

[[record]]
compound_structure_string = "O=C(c1ccc2c(c1)c1ccccc1n2CCCN1CCS(=O)(=O)CC1)N1CCCCC1"
meas_value = 249

[[record]]
compound_structure_string = "CCCCCCCn1c2ccccc2c2cc(C(=O)N3CCCCC3)ccc21"
meas_value = 827

[[record]]
compound_structure_string = "CCCCCn1c2ccccc2c2cc(C(=O)CN3CCN(C)CC3)ccc21"
meas_value = 398

[[record]]
compound_structure_string = "CCCn1c2ccccc2c2cc(C(=O)N3CCCCC3)ccc21"
meas_value = 521

[[record]]
compound_structure_string = "O=C(c1ccc2c(c1)c1ccccc1n2Cc1ccncc1)N1CCCCC1"
meas_value = 91

[[record]]
compound_structure_string = "CCCCCn1c2ccccc2c2cc(C(=O)N3CCCCC3)ncc21"
meas_value = 35.3

[[record]]
compound_structure_string = "CCCCCn1c2ccccc2c2cc(C(=O)CN3CCS(=O)(=O)CC3)ccc21"
meas_value = 502

[[record]]
compound_structure_string = "CCCCCn1c2ccccc2c2cc(CN3CCN(C)CC3)ccc21"
meas_value = 740

[[record]]
compound_structure_string = "CCOC(=O)CCn1c2ccccc2c2cc(C(=O)N3CCN(C)CC3)ccc21"
meas_value = 3380

